target: T1, recombinant human GPC3 (glypican-3) (human, UniProt P51654 25-559); experiment: SPR (Biacore T200), antibody captured by anti-Fc, GPC3 injected
T1 construct: also called huGPC3; hGPC3
Catalogue of Avg % binding huGPC3 (RU observed/theoretical) readings, one per entry.
measured_quantity: Avg % binding huGPC3 (RU observed/theoretical) (%)

binder	assay_result
v40209, H18L6_LC_G34T mAb (antibody, human IgG1, kappa, V domains shown, no number given for this variant) VH: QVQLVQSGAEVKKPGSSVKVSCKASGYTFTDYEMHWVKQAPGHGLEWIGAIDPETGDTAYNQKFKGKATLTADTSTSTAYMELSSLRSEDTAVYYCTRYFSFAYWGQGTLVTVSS VL: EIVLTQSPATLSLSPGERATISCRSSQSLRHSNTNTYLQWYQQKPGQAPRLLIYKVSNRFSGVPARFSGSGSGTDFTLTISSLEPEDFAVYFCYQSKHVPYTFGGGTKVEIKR	43.6
v40205, H18L6_LC_G34H mAb (antibody, human IgG1, kappa, V domains shown, no number given for this variant) VH: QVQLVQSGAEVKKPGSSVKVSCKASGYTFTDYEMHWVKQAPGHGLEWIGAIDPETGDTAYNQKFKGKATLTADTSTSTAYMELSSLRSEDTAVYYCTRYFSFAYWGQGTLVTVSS VL: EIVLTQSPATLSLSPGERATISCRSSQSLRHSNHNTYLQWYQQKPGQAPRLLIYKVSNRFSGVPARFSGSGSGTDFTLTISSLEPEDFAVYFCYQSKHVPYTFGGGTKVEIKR	43.5
v40217, H18L6_LC_N33K mAb (antibody, human IgG1, kappa, V domains shown, no number given for this variant) VH: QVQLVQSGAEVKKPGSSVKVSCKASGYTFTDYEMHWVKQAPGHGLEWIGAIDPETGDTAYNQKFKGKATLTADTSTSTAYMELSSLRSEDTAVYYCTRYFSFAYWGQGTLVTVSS VL: EIVLTQSPATLSLSPGERATISCRSSQSLRHSKGNTYLQWYQQKPGQAPRLLIYKVSNRFSGVPARFSGSGSGTDFTLTISSLEPEDFAVYFCYQSKHVPYTFGGGTKVEIKR	15.5
v40206, H18L6_LC_G34R mAb (antibody, human IgG1, kappa, V domains shown) VH: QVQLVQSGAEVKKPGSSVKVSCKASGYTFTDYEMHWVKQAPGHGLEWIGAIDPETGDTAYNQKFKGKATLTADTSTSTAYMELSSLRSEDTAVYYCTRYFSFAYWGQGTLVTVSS VL: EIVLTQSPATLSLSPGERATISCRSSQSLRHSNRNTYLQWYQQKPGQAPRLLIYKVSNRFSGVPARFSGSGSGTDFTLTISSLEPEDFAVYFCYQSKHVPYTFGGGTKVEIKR	42
